# assay: Apparent partition coefficient, logPapp of the compound by HPLC analysis
# Format: physicochemical
# condition.parameters: octanol/water
recorded.metric: logD
Form: value (number only, do not type unit).

# query: logD of entry CC(=O)OC(C)(P(=O)(OCOC(=O)C(C)(C)C)OCOC(=O)C(C)(C)C)P(=O)(OCOC(=O)C(C)(C)C)OCOC(=O)C(C)(C)C
7.4

* * *

# assay: Half-life of the compound in human serum by HPLC analysis
# Format: ADME, cell-free
recorded.metric: half-life (h)
Answer with a number only, understood to be in h.

# query: half-life of entry CC(=O)OC(C)(P(=O)(O)OCOC(=O)C(C)(C)C)P(=O)(OCOC(=O)C(C)(C)C)OCOC(=O)C(C)(C)C (stereo unspecified)
4.8

* * *

# assay: Octanol-water partition coefficient, logP of the compound by shake-flask method
# Assay type: physicochemical
recorded.metric: logP
Form: value (number only, do not type unit).

# query: logP of entry COc1ccc(OP(=O)(O)C(O)(c2cccc(Br)c2)P(=O)(O)Oc2ccc(OC)cc2)cc1 (stereo unspecified)
-0.31

* * *

Below, each of the compounds is paired with its reported EC50 value.
# System: Human immunodeficiency virus 2
# assay: Antiviral activity against HIV2 infected in human CEM-TK(-) cells assessed as inhibition of viral replication incubated for 4 to 5 days by microscopic analysis
# Assay type: functional, organism-based
# condition.parameters: Human immunodeficiency virus 2, CEM-TK(-)
Answer with a number only, understood to be in nM.

chemical_string=Cc1cn([C@H]2C=C[C@@H](COP(=O)(O)OP(=O)(OCc3ccc(OC(=O)c4ccccc4)cc3)OCc3ccc(OC(=O)c4ccccc4)cc3)O2)c(=O)[nH]c1=O target_of_assay="Human immunodeficiency virus 2" readout_value=850
chemical_string=Cc1cn([C@H]2C=C[C@@H](CO)O2)c(=O)[nH]c1=O target_of_assay="Human immunodeficiency virus 2" readout_value=70000

As a next step, examine the compound that follows.
# query: EC50 of entry CCCCCCCC(=O)Oc1ccc(COP(=O)(OCc2ccc(OC(=O)CCCCCCC)cc2)OP(=O)(O)OC[C@@H]2C=C[C@H](n3cc(C)c(=O)[nH]c3=O)O2)cc1
2600

* * *

# assay: Half-life of the compound in pH 5.0 phosphate buffer by HPLC analysis
# Format: physicochemical
recorded.metric: half-life (days)
Answer with a number only, understood to be in days.

# query: half-life of entry CC(=O)OC(C)(P(=O)(O)OCOC(=O)C(C)(C)C)P(=O)(OCOC(=O)C(C)(C)C)OCOC(=O)C(C)(C)C (configuration not stated)
10.5

* * *

# assay: Half-life of the compound in pH 7.4 phosphate buffer by HPLC analysis
# Assay type: physicochemical
recorded.metric: half-life

compound="CC(=O)OC(C)(P(=O)(O)OCOC(=O)C(C)(C)C)P(=O)(OCOC(=O)C(C)(C)C)OCOC(=O)C(C)(C)C (centres undefined)" readout_value="9790 min"
compound=CC(=O)OP(=O)(O)C(Cl)(Cl)P(=O)(O)OC(C)=O readout_value="912 min"
compound=CC(C)(C)C(=O)OCOP(=O)(O)C(Cl)(Cl)P(=O)(OCOC(=O)C(C)(C)C)OCOC(=O)C(C)(C)C readout_value="> 60 min"

As a next step, examine the compound that follows.
# query: half-life of entry CCCC(=O)OP(=O)(O)C(Cl)(Cl)P(=O)(O)OC(=O)CCC
912 min

* * *

# assay: Half-life of the compound in 10% rabbit liver homogenate by HPLC analysis
# Format: ADME, tissue-based, Oryctolagus cuniculus
# condition.parameters: 10% liver homogenate
Below, each of the compounds is paired with its reported half-life value.

Known results for compounds:
compound=CC(C)(C)C(=O)OCOP(=O)(O)C(Cl)(Cl)P(=O)(O)OCOC(=O)C(C)(C)C readout_value="14 min"
compound="CC(=O)OC(C)(P(=O)(O)OCOC(=O)C(C)(C)C)P(=O)(OCOC(=O)C(C)(C)C)OCOC(=O)C(C)(C)C (stereo not drawn)" readout_value="2.7 min"

# query: half-life of entry CC(C)(C)C(=O)OCOP(=O)(O)C(Cl)(Cl)P(=O)(OCOC(=O)C(C)(C)C)OCOC(=O)C(C)(C)C
1.1 min

* * *

# assay: 1-Octanol/phosphate buffer apparent partition coefficient, logPapp of the compound by shake-flask method
# Format: physicochemical
recorded.metric: logD
Form: value (number only, do not type unit).

# query: logD of entry CC(=O)OC(C)(P(=O)(O)OCOC(=O)C(C)(C)C)P(=O)(OCOC(=O)C(C)(C)C)OCOC(=O)C(C)(C)C (stereo unspecified)
0.6

Values compiled from ChEMBL document CHEMBL5223098.
